# Tested on: primary cultured cells of mouse fetus-derived dorsal root ganglia (DRGs)
# assay.protocol: Suppression of axonal degeneration after axotomy in DRG explant culture
# Type: cell-based
# experimental.context: Mus musculus; minimum concentration at which axonal degeneration was suppressed (DI 0.3 or less); 24 hours after axotomy; read-out: Evaluation on protection against degeneration
Measured minimal effective concentration, listed per entry.

Here are 3 compounds together with their reported answers.
In [3]: df
Out[3]:
                                   compound                            assayed_system  readout_value
0  NCCOCCOCCOCCCCCCCCNC(=O)c1cccnc1 [compound 9]  primary cultured cells of mouse fetus-derived dorsal root ganglia (DRGs)      ≤ 0.01 µM
1  N#Cc1ccc(C(=O)Nc2ccc(CNC(=O)c3cccnc3)cn2)cc1 [compound 73]  primary cultured cells of mouse fetus-derived dorsal root ganglia (DRGs)      ≤ 0.01 µM
2    NCCOCCOCCNC(=O)c1cccnc1 [compound 107]  primary cultured cells of mouse fetus-derived dorsal root ganglia (DRGs)      ≤ 0.01 µM

Considering CC(C)(C)OC(=O)N1CC(C(=O)Nc2ccc(CNC(=O)c3cccnc3)cn2)C1 [compound 94] , its minimal effective concentration with primary cultured cells of mouse fetus-derived dorsal root ganglia (DRGs) was recorded as ≤ 0.01 µM

Observed minimal effective concentration on primary cultured cells of mouse fetus-derived dorsal root ganglia (DRGs), entry O=C(NCCCOCCOCCCNC(=O)c1ccc2ncccc2c1)c1cccnc1 [Compound 188] , equals ≤ 0.01 µM

primary cultured cells of mouse fetus-derived dorsal root ganglia (DRGs) minimal effective concentration of O=C(NCc1ccc(NC(=O)c2cnc3ccccc3c2)nc1)c1cccnc1 [Compound 126] is ≤ 0.01 µM

Record for N#Cc1ccc(/C=C/C(=O)Nc2ccc(CNC(=O)c3cccnc3)cn2)cc1 [Compound 166] under target or system primary cultured cells of mouse fetus-derived dorsal root ganglia (DRGs): minimal effective concentration reported as ≤ 0.01 µM

# lookup: O=C(NCc1ccc(NC(=O)c2ccc(F)c(F)c2)nc1)c1cccnc1 [Compound 137] on primary cultured cells of mouse fetus-derived dorsal root ganglia (DRGs), minimal effective concentration = ≤ 0.01 µM

primary cultured cells of mouse fetus-derived dorsal root ganglia (DRGs) assay, compound N#Cc1ccc(CC(=O)Nc2ccc(CNC(=O)c3cccnc3)cn2)cc1 [Compound 154] , recorded minimal effective concentration = ≤ 0.01 µM

---

# assay.protocol: Pharmacokinetic evaluation after single iv and po administration to mice
# Assay type: in vivo, C57BL/6J male mice
# experimental.context: male, C57BL/6J, mouse, 10 mg/kg; po 10 mg/10 ml/kg single dose; plasma
We begin with a simple list: items and their reported half-life.
Dear colleague, please return just the value in h, with no unit written.

Worked set:
                                   compound  unit  readout_value
0  O=C(NCc1ccc(NC(=O)c2ccccc2)nc1)c1cccnc1 [compound 105]     h           4.13
1  CC(C)(C)C(=O)Nc1ccc(CNC(=O)c2cccnc2)cn1 [compound 76]     h           3.21

Now consider a different compound.
Input O=C(NCCCOCCOCCCNC(=O)c1cccnc1)c1cccnc1 [compound 35] . Output half-life: 1.89

---

# assay.protocol: Pharmacokinetic evaluation after single iv and po administration to mice
# Format: in vivo, C57BL/6J male mice
# experimental.context: male, C57BL/6J, mouse, 10 mg/kg; po 10 mg/10 ml/kg single dose; plasma
parameter: AUC(0-inf) (µg·h/mL)
Your answer is read as µg·h/mL, so omit the unit and give the number.

Below: 2 compounds and their reported AUC(0-inf).
>>> print(df.to_string())
                   structure_smiles_string  readout_value
0  O=C(NCc1ccc(NC(=O)c2ccccc2)nc1)c1cccnc1           2.42
1   O=C(NCCCOCCOCCCNC(=O)c1cccnc1)c1cccnc1          0.297

For this compound ( CC(C)(C)C(=O)Nc1ccc(CNC(=O)c2cccnc2)cn1 ), measured AUC(0-inf) is 14.2

---

# assay.protocol: Pharmacokinetic evaluation after single iv and po administration to mice
# Format: in vivo, C57BL/6J male mice
# experimental.context: male, C57BL/6J, mouse, 1 mg/kg; iv 1 mg/5 ml/kg single dose; plasma; read-out: CLtot (converted)
parameter: clearance (mL/min/kg)
Write it as a number; the unit mL/min/kg goes unstated.

The following molecules have reported results that may help.
>>> print(df.to_string())
                                   molecule  parameter  readout_value
0  O=C(NCCCOCCOCCCNC(=O)c1cccnc1)c1cccnc1 [compound 35]  clearance           71.4
1  CC(C)(C)C(=O)Nc1ccc(CNC(=O)c2cccnc2)cn1 [compound 76]  clearance           14.6

Below: the item to evaluate.
// clearance value for O=C(NCc1ccc(NC(=O)c2ccccc2)nc1)c1cccnc1 [compound 105] : 40.9

---

# System: primary cultured cells of mouse fetus-derived dorsal root ganglia (DRGs)
# assay.protocol: Suppression of axonal degeneration after axotomy in DRG explant culture
# Type: cell-based
# experimental.context: Mus musculus; minimum concentration at which axonal degeneration was suppressed (DI 0.3 or less); 24 hours after axotomy; read-out: Evaluation on protection against degeneration
Recorded minimal effective concentration, one value per entry.

                                   compound                            assayed_system                        parameter  readout_value
0     COc1cccc(OCCOCCNC(=O)/C=C/c2cccnc2)c1  primary cultured cells of mouse fetus-derived dorsal root ganglia (DRGs)  minimal effective concentration      ≤ 0.01 µM
1  CCC(C)C(=O)Nc1ccc(CNC(=O)c2cccnc2)cn1 (stereo not drawn)  primary cultured cells of mouse fetus-derived dorsal root ganglia (DRGs)  minimal effective concentration      ≤ 0.01 µM
2  O=C(Cc1ccccc1C(F)(F)F)Nc1ccc(CNC(=O)c2cccnc2)cn1  primary cultured cells of mouse fetus-derived dorsal root ganglia (DRGs)  minimal effective concentration      ≤ 0.01 µM
3                NCCOCCCCCCCCNC(=O)c1cccnc1  primary cultured cells of mouse fetus-derived dorsal root ganglia (DRGs)  minimal effective concentration      ≤ 0.01 µM
4  O=C(/C=C/c1ccccc1)NCc1ccc(CNC(=O)c2cccnc2)cc1  primary cultured cells of mouse fetus-derived dorsal root ganglia (DRGs)  minimal effective concentration      ≤ 0.01 µM

Value of measured minimal effective concentration for the entry O=C(NCCCNS(=O)(=O)c1ccccc1[N+](=O)[O-])c1cccnc1 : 0.1 to 1 µM

// minimal effective concentration lookup, compound = O=C(/C=C/c1cccnc1)NCCCNC1CCN(C(=O)c2ccccc2)CC1 , result: 0.01 to 0.1 µM

// field: minimal effective concentration; key: Cc1cc(C)cc(C(=O)Nc2ccc(CNC(=O)c3cccnc3)cn2)c1 ; value = ≤ 0.01 µM

So for O=C(NCc1ccc(CNC(=O)c2cccnc2)nc1)c1cccnc1 , the logged minimal effective concentration turned out to be 0.01 to 0.1 µM

---

# assay.protocol: Pharmacokinetic evaluation after single iv and po administration to mice
# Type: in vivo, C57BL/6J male mice
# experimental.context: male, C57BL/6J, mouse, 1 mg/kg; iv 1 mg/5 ml/kg single dose; plasma
parameter: C0 (ng/mL)
A number alone suffices; assume ng/mL.

In [3]: df
Out[3]:
                   structure_smiles_string  parameter   unit  readout_value
0   O=C(NCCCOCCOCCCNC(=O)c1cccnc1)c1cccnc1         C0  ng/mL           1600
1  O=C(NCc1ccc(NC(=O)c2ccccc2)nc1)c1cccnc1         C0  ng/mL           1050

So, CC(C)(C)C(=O)Nc1ccc(CNC(=O)c2cccnc2)cn1 ? Its C0 was 1940

---

Listed here are compounds together with their documented AUC(0-t).
# assay.protocol: Pharmacokinetic evaluation after single iv and po administration to mice
# Type: in vivo, C57BL/6J male mice
# experimental.context: male, C57BL/6J, mouse, 1 mg/kg; iv 1 mg/5 ml/kg single dose; plasma
// return numeric value only (unit: ng·h/mL, not printed)

Below: 2 compounds and their reported AUC(0-t).
In [3]: df
Out[3]:
                   structure_smiles_string     unit  readout_value
0  O=C(NCc1ccc(NC(=O)c2ccccc2)nc1)c1cccnc1  ng·h/mL            391
1   O=C(NCCCOCCOCCCNC(=O)c1cccnc1)c1cccnc1  ng·h/mL            228

// sample CC(C)(C)C(=O)Nc1ccc(CNC(=O)c2cccnc2)cn1 , its AUC(0-t) was 1160

---

# assayed.system: hSARM1 (Homo sapiens, UniProt Q6SZW1)
# Sequence (Q6SZW1 28-724): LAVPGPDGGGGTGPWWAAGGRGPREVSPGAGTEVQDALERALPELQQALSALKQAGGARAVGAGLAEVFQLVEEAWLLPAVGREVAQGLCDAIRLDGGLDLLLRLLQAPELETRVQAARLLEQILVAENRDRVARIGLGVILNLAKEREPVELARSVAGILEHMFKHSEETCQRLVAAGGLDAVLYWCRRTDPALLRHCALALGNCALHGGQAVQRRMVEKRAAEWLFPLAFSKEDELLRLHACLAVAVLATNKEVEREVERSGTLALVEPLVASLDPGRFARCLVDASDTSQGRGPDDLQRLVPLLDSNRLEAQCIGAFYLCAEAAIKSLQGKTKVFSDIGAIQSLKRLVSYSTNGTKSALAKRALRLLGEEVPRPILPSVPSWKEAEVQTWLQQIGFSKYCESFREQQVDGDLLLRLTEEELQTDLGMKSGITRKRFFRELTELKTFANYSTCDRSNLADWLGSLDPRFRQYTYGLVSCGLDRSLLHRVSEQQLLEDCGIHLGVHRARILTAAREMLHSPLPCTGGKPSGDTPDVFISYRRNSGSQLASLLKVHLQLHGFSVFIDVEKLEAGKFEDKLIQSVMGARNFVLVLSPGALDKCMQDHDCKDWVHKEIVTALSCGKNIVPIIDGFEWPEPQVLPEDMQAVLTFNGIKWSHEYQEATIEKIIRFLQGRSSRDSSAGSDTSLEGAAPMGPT
# assay.protocol: Human SARM1 activity measurement in HEK293 cells transiently transfected with ΔN-hSARM1 (PC6 fluorescent probe)
# Assay type: cell-based
# Parameters: expressed in transfected cells; host or cells: HEK293, pcDNA3 expression vector
# experimental.context: inhibition rate; compound 30 µM; PC6 50 µM; HEK293 cells expressing ΔN-hSARM1; approximately 48 hours from transfection; read-out: Evaluation on hSARM1 inhibitory
parameter: inhibition at 30 µM

Notebook: O=C(NCc1ccc(NC(=O)c2cccnc2)c(Cl)c1)c1cccnc1 [Compound 112] , inhibition at 30 µM read as > 10%

Looking up CCCCCC(=O)Nc1ccc(CNC(=O)c2cccnc2)cn1 [Compound 160] , I see its inhibition at 30 µM listed as > 75%

Looking up O=C(/C=C/c1cccnc1)Nc1ccc(NC(=O)/C=C/c2cccnc2)cc1 [compound 58] , I found its inhibition at 30 µM recorded as > 75%

Record O=C(NCCCCC1NC(=O)C(CCCCNC(=O)c2cccnc2)NC1=O)c1cccnc1 (stereo not drawn) [compound 104] . Reported inhibition at 30 µM: > 10%

Note to self: inhibition at 30 µM recorded for CCC(C)(C)C(=O)Nc1ccc(CNC(=O)c2cccnc2)cn1 [compound 88] was > 50%

For this compound ( O=C(NCCCCCCCCOCCOCCOCCO)c1cccnc1 [compound 8] ), measured inhibition at 30 µM is > 50%

Record O=C(NCCCOc1ccc(CNC(=O)c2cccnc2)cc1)c1cccnc1 [compound 52] . Reported inhibition at 30 µM: > 50%

Form: compound = O=C(COc1ccccc1)Nc1ccc(CNC(=O)c2cccnc2)cn1 [Compound 147] ; inhibition at 30 µM = > 75%

Sure, the documented inhibition at 30 µM for O=C(Cc1ccc(F)cc1)Nc1ccc(CNC(=O)c2cccnc2)cn1 [Compound 144] is > 75%

Source of measurements: patent EP4793271A1
